The following molecules are listed with their measured inhibition at 100 µg/mL values.
# System: SIV virus
# test summary: Test C (XTT), MT4 cells infected with SIV
# Assay type: cell-based
# study conditions: Simian immunodeficiency virus, MT4, Test C; 100 µg/ml
measured endpoint: inhibition at 100 µg/mL (%)

mol_smiles=S=C(NCCc1ccccc1)Nc1cnccn1 unit_tag=% quantitative_result=100
mol_smiles=Cc1ccnc(NC(=S)NCCc2ccccc2)n1 unit_tag=% quantitative_result=0
mol_smiles=S=C(NCCc1ccccc1)Nc1nc2c(Cl)cccc2s1 unit_tag=% quantitative_result=17
mol_smiles=S=C(NCCc1ccccc1)Nc1nncs1 unit_tag=% quantitative_result=0
mol_smiles=S=C(NCCc1ccccc1)Nc1nc2ccccc2s1 unit_tag=% quantitative_result=8
mol_smiles=N#Cc1csc(NC(=S)NCCc2ccccc2)n1 unit_tag=% quantitative_result=0
mol_smiles=S=C(NCCc1ccccc1)Nc1nc2ccc(Cl)cc2s1 unit_tag=% quantitative_result=21
mol_smiles=Fc1ccc2nc(NC(=S)NCCc3ccccc3)sc2c1 unit_tag=% quantitative_result=19
mol_smiles=FC(F)(F)c1csc(NC(=S)NCCc2ccccc2)n1 unit_tag=% quantitative_result=43
mol_smiles=CCOc1ccccc1CCNC(=S)Nc1nccs1 unit_tag=% quantitative_result=0
mol_smiles=Cc1nc(NC(=S)NCCc2ccccc2)sc1C unit_tag=% quantitative_result=0
mol_smiles=S=C(NCCc1ccccc1)Nc1nnc[nH]1 unit_tag=% quantitative_result=15
